# experimentalProtocol: Stability in rat plasma
# Assay type: in vitro ADME
# experimentalParameters: after 4 hours, 37° C.
endpointName: residual percentage in rat plasma (%)

smilesRepr: O=C(NO)c1ccc(Cc2noc(-c3ccnc(N4CCOCC4)c3)n2)cc1
uom: %
result: 81

smilesRepr: O=C(NO)c1ccc(Sc2nnc(-c3ccc(F)cc3)[nH]2)cc1
uom: %
result: 103

smilesRepr: Cn1c(Sc2c(F)cc(C(=O)NO)cc2F)nnc1C1(c2ccccc2)CCC1
uom: %
result: 73

smilesRepr: O=C(NO)c1cc(F)c(Sc2nnc(N3CCOCC3)n2Cc2ccccc2)c(F)c1
uom: %
result: 82

smilesRepr: CCN(CC)Cc1cc(-c2nnc(Sc3c(F)cc(C(=O)NO)cc3F)n2C)c(C)o1
uom: %
result: 80

smilesRepr: O=C(NO)c1cc(F)c(Cn2nnnc2-c2ccc(C(F)(F)F)cn2)c(F)c1
uom: %
result: 93

smilesRepr: Cc1nc2ccc(F)cc2cc1-c1nnc(Sc2c(F)cc(C(=O)NO)cc2F)n1C
uom: %
result: 100

smilesRepr: Cn1c(Sc2c(F)cc(C(=O)NO)cc2F)nnc1-c1nccc2ccccc12
uom: %
result: 100

smilesRepr: COCCN(CCOC)c1cncc(-c2nc(Cc3c(F)cc(C(=O)NO)cc3F)no2)c1
uom: %
result: 96
